The measured values listed here are drawn from patent US7528138B2.

Consider the following compounds; for each one, report its Ki.

Hi! What's the reported Ki for CN(CCCN)C(=O)c1ccc(-c2cnc3c(-c4ccccn4)c(N)nn3c2)nc1 [Compound V-130] on JAK3 (Homo sapiens, UniProt P52333)?
> 5 µM

Record lookup: for JAK3 (Homo sapiens, UniProt P52333), what Ki belongs to CCOC(=O)c1c(N)nn2cc(CCCOC(C)=O)cnc12 [Compound V-48] ?
> 5 µM

Given the entry Nc1nn2cc(-c3ccc(N4CCC(N5CCCC5)CC4)nc3)cnc2c1-c1ccccn1 [Compound V-164] , what Ki was observed with JAK3 (Homo sapiens, UniProt P52333)?
> 5 µM

// lookup Ki | system=JAK3 (Homo sapiens, UniProt P52333) | key= Nc1nn2cc(-c3ccc(N4CCC[C@@H]4CN4CCCC4)nc3)cnc2c1-c1ccccn1 [Compound V-176]
0.5 to 5 µM

Recall the recorded Ki for CCN(CCCCN)C(=O)c1cccc(-c2cnc3c(-c4ccccn4)c(N)nn3c2)n1 [Compound V-110] with JAK3 (Homo sapiens, UniProt P52333) and state it.
Sequence (P52333 whole entry, species assumed): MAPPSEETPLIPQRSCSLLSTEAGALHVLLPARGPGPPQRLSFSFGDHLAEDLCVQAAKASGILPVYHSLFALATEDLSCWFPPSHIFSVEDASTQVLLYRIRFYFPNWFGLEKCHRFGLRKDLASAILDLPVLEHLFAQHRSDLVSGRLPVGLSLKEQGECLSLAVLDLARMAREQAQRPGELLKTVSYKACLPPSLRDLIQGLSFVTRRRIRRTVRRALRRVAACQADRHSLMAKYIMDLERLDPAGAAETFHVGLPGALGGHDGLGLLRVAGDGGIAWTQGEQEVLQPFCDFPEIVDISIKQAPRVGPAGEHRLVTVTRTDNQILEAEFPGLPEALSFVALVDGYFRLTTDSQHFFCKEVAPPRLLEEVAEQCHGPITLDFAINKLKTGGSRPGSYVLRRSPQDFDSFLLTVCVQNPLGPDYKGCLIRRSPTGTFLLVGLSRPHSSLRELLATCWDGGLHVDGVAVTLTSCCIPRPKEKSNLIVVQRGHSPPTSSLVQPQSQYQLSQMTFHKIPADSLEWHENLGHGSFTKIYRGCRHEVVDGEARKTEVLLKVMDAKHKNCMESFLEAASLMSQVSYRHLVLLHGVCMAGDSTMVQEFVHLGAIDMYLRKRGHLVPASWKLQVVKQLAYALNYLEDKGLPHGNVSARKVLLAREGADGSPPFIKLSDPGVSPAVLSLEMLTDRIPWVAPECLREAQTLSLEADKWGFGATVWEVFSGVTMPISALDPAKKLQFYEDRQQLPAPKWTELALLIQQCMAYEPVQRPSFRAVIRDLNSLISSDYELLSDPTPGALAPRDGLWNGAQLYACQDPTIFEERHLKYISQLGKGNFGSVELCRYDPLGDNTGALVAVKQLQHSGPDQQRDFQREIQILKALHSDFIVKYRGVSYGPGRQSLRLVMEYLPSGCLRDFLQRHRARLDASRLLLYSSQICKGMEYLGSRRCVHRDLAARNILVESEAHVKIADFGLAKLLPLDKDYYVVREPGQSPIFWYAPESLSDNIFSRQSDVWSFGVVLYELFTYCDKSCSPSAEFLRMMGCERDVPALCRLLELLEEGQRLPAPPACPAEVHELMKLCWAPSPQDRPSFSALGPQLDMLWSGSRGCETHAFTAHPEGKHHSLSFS
0.5 to 5 µM

// map Nc1nn2cc(-c3ccncc3)cnc2c1-c1cc(NCC2CCCCC2)ncn1 [Compound V-184] to recorded Ki (system: JAK3 (Homo sapiens, UniProt P52333))
0.5 to 5 µM

Any idea what Ki came out for Nc1nn2cc(CCCN3CCNCC3)cnc2c1-c1ccccn1 [Compound V-314] on JAK3 (Homo sapiens, UniProt P52333)?
> 5 µM

# returns recorded Ki (system: JAK3 (Homo sapiens, UniProt P52333)) for Nc1nn2cc(-c3ccccc3[N+](=O)[O-])cnc2c1-c1ccccn1 [Compound V-21]
> 5 µM

So what Ki did CN(CCN)C(=O)c1cccc(-c2cnc3c(-c4ccccn4)c(N)nn3c2)n1 [Compound V-120] get with JAK3 (Homo sapiens, UniProt P52333)?
0.5 to 5 µM

What Ki appears in the records for this compound with JAK3 (Homo sapiens, UniProt P52333)? Nc1nn2cc(-c3cccc(C(=O)N4CCC[C@H]4CN4CCCC4)n3)cnc2c1-c1ccccn1 [Compound V-154]
> 5 µM

GET /values?readout=Ki&system=JAK3 (Homo sapiens, UniProt P52333)&item= Nc1nn2cc(-c3ccc(C(=O)N4CCC[C@@H]4CN4CCCC4)cn3)cnc2c1-c1ccccn1 [Compound V-153]
0.5 to 5 µM

Query the reported Ki for JAK3 (Homo sapiens, UniProt P52333); item: Nc1nn2cc(CCc3ccccc3)cnc2c1-c1ccccn1 [Compound V-213]
> 5 µM

Field: Ki (JAK3 (Homo sapiens, UniProt P52333)). Entry: Nc1nn2cc(-c3ccc(C(=O)N4CCC[C@@H]4CO)cn3)cnc2c1-c1ccccn1 [Compound V-93]
0.5 to 5 µM

Observed Ki on JAK3 (Homo sapiens, UniProt P52333) for Nc1nn2cc(-c3ccc(C(=O)N4CCCCC4CCO)cn3)cnc2c1-c1ccccn1 (centres unmarked) [Compound V-82] , please.
> 5 µM

Query Ki on JAK3 (Homo sapiens, UniProt P52333) for CC(=O)N1CCN(c2ncccc2-c2cnc3c(-c4ccccn4)c(N)nn3c2)CC1 [Compound V-269]
> 5 µM

Requested read-out Ki, target or system JAK3 (Homo sapiens, UniProt P52333), entry CN(CCN)C(=O)c1ccc(-c2cnc3c(-c4ccccn4)c(N)nn3c2)nc1 [Compound V-94]
> 5 µM

Provide value of Ki for this record tested with JAK3 (Homo sapiens, UniProt P52333): COc1ccc(-c2cnc3c(-c4ccccn4)c(N)nn3c2)cn1 [Compound V-50]
> 5 µM
